biological target: UniProt P08183; assay: Inhibition of human PGP-mediated [3H]-digoxin transport in 15B-J (LLC-PK1 expressing human PGP) monolayers; conditions: human, pH 7.2, Ketoconazole Normalized % Inhibition of Digoxin Transport, 0.03 μM test substance; normalized to 25 μM ketoconazole
experimental.readout: inhibition at 90 min, 0.03 μM
Just the number plus its unit, please.

# smiles.str, inhibition at 90 min, 0.03 μM
measured = [
    ("C=CCN1CC[C@]23c4c5ccc(O)c4O[C@H]2C(=O)CC[C@@]3(O)[C@H]1C5", "5.7%"),
]

Field: next molecule
[Q] Fill in inhibition at 90 min, 0.03 μM for record C=C1CC[C@@]2(O)[C@H]3Cc4ccc(O)c5c4[C@@]2(CCN3CC2CC2)[C@H]1O5
[A] -10%

###

molecular target: human PGP (P-glycoprotein) (Homo sapiens, UniProt P08183); assay: Inhibition of human PGP-mediated [3H]-digoxin transport in 15B-J (LLC-PK1 expressing human PGP) monolayers; conditions: human, pH 7.2, Ketoconazole Normalized % Inhibition of Digoxin Transport, 100 μM test substance; normalized to 25 μM ketoconazole
Sequence (P08183 whole entry): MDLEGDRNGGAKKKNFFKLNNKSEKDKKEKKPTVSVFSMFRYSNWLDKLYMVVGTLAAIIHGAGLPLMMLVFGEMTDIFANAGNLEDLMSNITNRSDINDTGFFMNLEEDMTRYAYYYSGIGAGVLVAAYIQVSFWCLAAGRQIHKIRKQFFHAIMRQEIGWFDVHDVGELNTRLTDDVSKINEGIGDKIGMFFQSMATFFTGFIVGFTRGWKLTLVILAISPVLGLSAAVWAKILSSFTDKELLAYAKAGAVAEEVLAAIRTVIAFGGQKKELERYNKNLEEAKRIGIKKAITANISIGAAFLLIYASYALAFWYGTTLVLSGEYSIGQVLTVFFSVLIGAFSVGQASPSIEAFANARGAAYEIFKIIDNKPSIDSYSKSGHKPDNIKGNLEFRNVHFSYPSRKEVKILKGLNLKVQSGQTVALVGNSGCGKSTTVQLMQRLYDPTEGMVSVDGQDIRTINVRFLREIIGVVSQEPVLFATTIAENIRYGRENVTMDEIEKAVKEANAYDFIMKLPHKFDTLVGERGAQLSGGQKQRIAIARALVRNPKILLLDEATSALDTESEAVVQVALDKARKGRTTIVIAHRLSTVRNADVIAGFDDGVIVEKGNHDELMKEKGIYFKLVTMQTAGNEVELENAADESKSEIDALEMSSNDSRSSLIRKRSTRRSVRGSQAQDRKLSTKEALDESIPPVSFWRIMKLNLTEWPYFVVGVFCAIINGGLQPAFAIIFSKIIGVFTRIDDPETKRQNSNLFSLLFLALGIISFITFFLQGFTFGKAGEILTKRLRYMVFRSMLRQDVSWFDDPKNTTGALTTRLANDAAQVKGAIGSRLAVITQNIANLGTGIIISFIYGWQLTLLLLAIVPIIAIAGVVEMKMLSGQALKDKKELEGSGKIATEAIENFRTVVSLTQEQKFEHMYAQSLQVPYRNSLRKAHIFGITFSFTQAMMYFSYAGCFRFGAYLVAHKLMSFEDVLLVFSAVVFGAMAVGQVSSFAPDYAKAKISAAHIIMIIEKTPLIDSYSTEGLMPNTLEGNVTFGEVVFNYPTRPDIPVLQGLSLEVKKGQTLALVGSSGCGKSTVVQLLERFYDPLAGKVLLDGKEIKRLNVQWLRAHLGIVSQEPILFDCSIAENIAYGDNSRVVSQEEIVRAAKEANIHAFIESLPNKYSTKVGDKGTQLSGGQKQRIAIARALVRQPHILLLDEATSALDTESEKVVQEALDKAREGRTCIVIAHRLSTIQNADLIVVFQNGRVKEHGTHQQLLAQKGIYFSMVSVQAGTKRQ
experimental.readout: inhibition at 90 min, 100 μM (%)
Record the value in %, omitting the unit from your answer.

# molecule, units.label, inhibition at 90 min, 100 μM
data = [
    ("C=C1CC[C@@]2(O)[C@H]3Cc4ccc(O)c5c4[C@@]2(CCN3CC2CC2)[C@H]1O5 [Nalmefene, nalmefene]", "%", 61),
]

[Q] Enter recorded inhibition at 90 min, 100 μM with human PGP (P-glycoprotein) (Homo sapiens, UniProt P08183) for C=CCN1CC[C@]23c4c5ccc(O)c4O[C@H]2C(=O)CC[C@@]3(O)[C@H]1C5 [Naloxone, naloxone] here.
[A] 37

###

molecular target: human PGP (P-glycoprotein) (Homo sapiens, UniProt P08183); assay: Inhibition of human PGP-mediated [3H]-digoxin transport in 15B-J (LLC-PK1 expressing human PGP) monolayers; settings: human, pH 7.2, % Inhibition of Digoxin Transport, 0.0003 μM test substance; 5 μM [3H]-digoxin; 90 min
experimental.readout: inhibition at 90 min, 0.0003 μM (%)
Record the value in %, omitting the unit from your answer.

[Q] Fill in inhibition at 90 min, 0.0003 μM for record C=C1CC[C@@]2(O)[C@H]3Cc4ccc(O)c5c4[C@@]2(CCN3CC2CC2)[C@H]1O5
[A] 7.2

###

molecular target: human PGP (P-glycoprotein) (Homo sapiens); test: Inhibition of human PGP-mediated [3H]-digoxin transport in 15B-J (LLC-PK1 expressing human PGP) monolayers; settings: human, pH 7.2, % Inhibition of Digoxin Transport, 0.3 μM test substance; 5 μM [3H]-digoxin; 90 min
experimental.readout: inhibition at 90 min, 0.3 μM (%)
Record the value in %, omitting the unit from your answer.

[Q] Fill in inhibition at 90 min, 0.3 μM for record C=C1CC[C@@]2(O)[C@H]3Cc4ccc(O)c5c4[C@@]2(CCN3CC2CC2)[C@H]1O5
[A] -5.6

###

biological target: human PGP (P-glycoprotein) (Homo sapiens, UniProt P08183); assay: Inhibition of human PGP-mediated [3H]-digoxin transport in 15B-J (LLC-PK1 expressing human PGP) monolayers; settings: human, pH 7.2, Ketoconazole Normalized % Inhibition of Digoxin Transport, 0.0001 μM test substance; normalized to 25 μM ketoconazole
experimental.readout: inhibition at 90 min, 0.0001 μM (%)
Record the value in %, omitting the unit from your answer.

# smiles.str, inhibition at 90 min, 0.0001 μM (%)
rows = [
    ("C=C1CC[C@@]2(O)[C@H]3Cc4ccc(O)c5c4[C@@]2(CCN3CC2CC2)[C@H]1O5", 7.5),
]

Field: next molecule
[Q] Enter recorded inhibition at 90 min, 0.0001 μM with human PGP (P-glycoprotein) (Homo sapiens, UniProt P08183) for C=CCN1CC[C@]23c4c5ccc(O)c4O[C@H]2C(=O)CC[C@@]3(O)[C@H]1C5 here.
[A] 6.2
